- measurement_protocol: solid-state stability of the crystal forms
- Assay type: physicochemical
- protocol_conditions: qualitative comparison of the forms identified
readout_type: stability of the crystal form

CCc1nc2c(C)nc(C)cc2n1-c1ccc(CCNC(=O)NS(=O)(=O)c2ccc(C)cc2)cc1 [Crystal Form D]: less stable
CCc1nc2c(C)nc(C)cc2n1-c1ccc(CCNC(=O)NS(=O)(=O)c2ccc(C)cc2)cc1 [Crystal Form C]: less stable
CCc1nc2c(C)nc(C)cc2n1-c1ccc(CCNC(=O)NS(=O)(=O)c2ccc(C)cc2)cc1 [Crystal Form G]: less stable

Cited source: patent US7960407B2
